# System: MS2 coat protein
# assay.notes: apparent KD of MS2 coat protein; designed switch direction (-1 OFF switch, 1 ON switch): -1; higher = weaker reporter binding
# experimental.setup: input ligand: FMN 200 uM
Reported apparent KD of MS2 coat protein is given for each of the following sequences.
Your answer should be a plain number; it is taken to be in nM.

*Q* Please give the documented apparent KD of MS2 coat protein of CCGAUGUGAGGAUAUACACUAGGGUGCGUAUACGUGAGCAAACAUGAGGAUCACCCAUGUAGAAGGCACUGAAA [Eternabot (Original) Solution 50] (Eterna round: R97, puzzle: Exclusion 2)
*A* 117

*Q* Please give the documented apparent KD of MS2 coat protein of CUCAUUUGUCAGGAUAUCGUGAGGCUAAUUAUACGAGAAGGGACGACAUGAGGAUCACCCAUGUGGUCUUUGAG [JR_Ex6_Sub082] (Eterna round: R97, puzzle: Exclusion 6)
*A* 161

*Q* Please give the documented apparent KD of MS2 coat protein of AAGACACAUGAGGAUCACCCAUGUGAGGAUAUUCGAUGCUGAGCGUAAGCUUAGUAUCGGAGAAGGCACAUAGG [Salishxclusion 8 - Jieux - Exclusion 1] (Eterna round: R97, puzzle: Exclusion 1)
*A* 203

*Q* Please give the documented apparent KD of MS2 coat protein of AGUUAGAUAGGAUAUGCCCGAGAUAACAUGAGGAUCACCCAUGUGACCGAGUCUAUUCUAGCAGAAGGGUUUAUGA [Mod of ViennaUCT 20 - Jieux - Exclusion 5] (Eterna round: R97, puzzle: Exclusion 5)
*A* 17.8

*Q* Please give the documented apparent KD of MS2 coat protein of GAAAAGGCAGAGGAUAUUUCAGAUCAAAGCUGCAAAGAAGGCUGCACAUGAGGAUCACCCAUGUGGUCUUAAAA [Mod of Quesina 5 - Jieux - Exclusion 6] (Eterna round: R97, puzzle: Exclusion 6)
*A* 176

* * *

Reported apparent KD of MS2 coat protein is given for each of the following sequences.
# Tested on: MS2 coat protein
# assay.notes: apparent KD of MS2 coat protein; designed switch direction (-1 OFF switch, 1 ON switch): 1; higher = weaker reporter binding
# experimental.setup: Eterna round: R95; input ligand: microRNA oligo, concentration not stated
Your answer should be a plain number; it is taken to be in nM.

Consider the following illustrative entries.
residue.string	assayed.target	quantity.measured	obs.value
CAGCACUGUCGAGAGGAUAUGCGGUGAUGGACAUGAGGAUCACCCAUGUUAGCGACAGCAUCACGGCAGAAGGCUCUACUGCUGC [Soteed Omei mod 32] (puzzle: Same State 2)	MS2 coat protein	apparent KD of MS2 coat protein	12.3
AGCUAUCGAAAACGAUAGCAAAGGCAUGUACAUGAGGAUCACCCAUGUCAUGUACAAGCUUUUUGCUCGUCUUAAAA [Zipper 23 - 3] (puzzle: Sensor for hsa-mir-208a)	MS2 coat protein	apparent KD of MS2 coat protein	15.9
CGUCCAGCCUGAGCUGGACAAAAGCAUGUACAUGAGGAUCACCCAUGUUCAUGUACAAGCUUUUUGCUCGUCUUAGG [salish99_208a_r3_074] (puzzle: Sensor for hsa-mir-208a)	MS2 coat protein	apparent KD of MS2 coat protein	20.1
AACUUACGACCACAGGAUAUACUGAGGCGGACAUGAGGAUCACCCAUGUAGGCAAAAUAAGGGCAGUAGAAGGGUGGUCUUUACA [Usbiraxe] (puzzle: Same State 2)	MS2 coat protein	apparent KD of MS2 coat protein	18.8

Proceeding to the next sequence to report its apparent KD of MS2 coat protein.
*Q* Please give the documented apparent KD of MS2 coat protein of GGAGAGAGAGCACAGGAUAUUUAAGGAGAGACAUGAGGAUCACCCAUGUGAGAGAGAGAGGAGAGAGAGAAGGGUGAGAGAGAGG [Altered State 2-17 - Jieux - Same State 2] (puzzle: Same State 2)
*A* 79.1

These measurements were taken from the supplement of paper PMC9170038.
